- Test system: Mycobacterium tuberculosis
- TEST_NAME: Antitubercular activity against Mycobacterium tuberculosis H37Rv ATCC 27294 in glycerol-alanine-salts medium after 7 days by Microplate Alamar Blue assay
- Format: functional
- DETAILS: H37Rv ATCC 27294, 168 h
List of MIC90 values.
Field format: number, assumed µM, no unit text.

Completed entries (count: 4):
# COMPOUND_STRING, TARGET, ASSAY_ENDPOINT, NUMBER
data = [
    ("Cc1cnc2nc(C)c(C(=O)OCc3ccccc3)n2c1", "Mycobacterium tuberculosis", "MIC90", 1.4),
    ("Cc1ccc2c(C(=O)NCc3ccccc3)c(C)[nH]c2c1", "Mycobacterium tuberculosis", "MIC90", 43.8),
    ("Cc1ccc2nc(C)c(C(=O)OCc3ccccc3)n2c1", "Mycobacterium tuberculosis", "MIC90", 0.004),
    ("Cc1ccn2c(C(=O)NCc3ccccc3)nnc2c1", "Mycobacterium tuberculosis", "MIC90", 101),
]

Query: Name the reported MIC90 value associated with the compound Cc1ccc2c(C(=O)NCc3ccccc3)n[nH]c2c1
Response: 40.8

Query: And for Cc1ccc2nc(C)c(C(=O)NCc3ccccc3)n2c1 ?
Response: 0.11
